- Test system: Bacillus subtilis
- experiment_notes: Inhibition of Bacillus subtilis full length NusB/GST-tagged NusE interaction at 25 uM preincubated with NusE for 15 mins followed by incubation with NusB for 1 hr by ELISA
Answer each item with its documented inhibition.
Give bare numbers, in %.

Some molecules with known inhibition results, for comparison:
{"test_smiles": "CCNC(=O)Nc1ccc(OCCCCOc2ccc(NC(=O)NCC)cc2)cc1", "parameter": "inhibition", "recorded_value": 52}
{"test_smiles": "COc1cc(/C=N/NC(=O)CCc2ccc(O)cc2)cc(OC)c1OC", "parameter": "inhibition", "recorded_value": 5}
{"test_smiles": "COc1ccc(/C=C/C(=O)c2ccc(OC)c(OC)c2)c(OC)c1", "parameter": "inhibition", "recorded_value": 48}

Batch lookup, inhibition per entry.
1. COc1ccc(-c2cc(-c3ccc(OC)c(OC)c3)nc(NS(=O)(=O)c3ccc(NC(C)=O)cc3)n2)c(OC)c1
2. COc1ccc(-c2cc(-c3ccc(OC)c(OC)c3)nc(NS(=O)(=O)c3ccc(N)cc3)n2)c(OC)c1
3. Oc1ccccc1CNc1ccc(OCCCCOc2ccc(NCc3ccccc3O)cc2)cc1

Resp:
[88, 3, 45]
